biological target: COUP transcription factor 2 (Homo sapiens) (UniProt P24468); assay: NR2F2 transcriptional activity inhibitors, confirmation, cell-based, luciferase reporter, HEK293, triplicate (AID 687008); settings: HEK293 NGFI-A luciferase reporter, luminescence; at 8.5 µM; stronger effect = higher value
Sequence (P24468 whole entry, looked up): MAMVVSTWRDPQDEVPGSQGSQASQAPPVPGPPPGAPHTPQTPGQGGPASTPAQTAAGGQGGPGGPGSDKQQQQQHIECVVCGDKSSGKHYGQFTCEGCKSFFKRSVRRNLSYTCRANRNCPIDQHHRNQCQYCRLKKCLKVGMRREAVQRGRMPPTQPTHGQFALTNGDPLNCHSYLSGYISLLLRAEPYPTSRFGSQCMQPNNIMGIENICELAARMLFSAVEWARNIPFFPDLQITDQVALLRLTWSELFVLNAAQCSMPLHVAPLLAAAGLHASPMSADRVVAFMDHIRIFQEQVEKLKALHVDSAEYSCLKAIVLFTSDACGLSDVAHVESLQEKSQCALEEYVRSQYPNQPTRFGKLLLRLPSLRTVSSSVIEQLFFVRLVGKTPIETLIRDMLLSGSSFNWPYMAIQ
This is one part of the list.
Note that class boundaries on inhibition are low group = under 20%, middle group = from 20% up to 40%, high group = 40% and over

Consider the worked cases shown below.
CC(C)OCCCNc1ncnc2c1[nH]c1ccc(F)cc12	high group
O=C(NC(Nc1nc2ccc([N+](=O)[O-])cc2s1)(C(F)(F)F)C(F)(F)F)c1ccccc1	high group
COc1cc(SC)ccc1C(=O)Nc1nc(C)cs1	high group
CCOC(=O)N1CCN(C(=O)C[C@@H]2C(=O)N(CCc3ccc(Cl)cc3)C3=CCCC[C@]32C(=O)OCC)CC1	low group
CN1OC[C@@H]2CN(S(=O)(=O)c3cccc(C(F)(F)F)c3)[C@H](c3ccc(-c4cc5ccccc5o4)cc3)C[C@@H]21	low group
Cc1ccccc1CS(=O)(=O)Cc1ccc(C(=O)Nc2ccc(Cl)cc2)o1	high group
CCOC(=O)N1CCN(C(=O)C2CCN(c3ncnc4c3sc3cccc(F)c34)CC2)CC1	middle group
CCC(=O)Nc1ccc(C(=O)CSc2nnc(CNc3ccc(Cl)cc3)o2)cc1OC	low group

Consider O=C(Nc1ccc(S(=O)(=O)NCC2CCCO2)cc1)c1ccc(F)cc1 (configuration not stated) . To which inhibition class does it belong?
low group

Consider COc1ccc(Nc2ncnc3ccc(Br)cc23)c(OC)c1 . To which inhibition class does it belong?
low group

Consider CCc1cc(-c2nnn(CCC3COCCO3)c2CC)ccc1-c1cn(Cc2ccc3ccccc3c2)nn1 (configuration not stated) . To which inhibition class does it belong?
high group

Consider CCCOc1ccc(Cc2c(Cl)nc(SC)nc2NC)cc1 . To which inhibition class does it belong?
high group

Consider Cc1ccc(-c2nc(CSCC(=O)NC3CCN(Cc4ccccc4)CC3)c(C)o2)cc1 . To which inhibition class does it belong?
middle group

Consider COc1ccc(-n2c(C)cc(C(=O)CSc3nnc(-c4cccs4)o3)c2C)cc1 . To which inhibition class does it belong?
middle group

Consider COc1ccc(/C=C2/SC(=O)N(CCCCCC(=O)Nc3ccccc3C(=O)O)C2=S)cc1 . To which inhibition class does it belong?
low group

Consider O=C(Nc1ccc(CSc2ccccc2)cc1)c1ccc(CN2CCOCC2)cc1 . To which inhibition class does it belong?
high group

Consider COc1ccc(CC(=O)Nc2nc(-c3ccc(F)c(F)c3)cs2)cc1OC . To which inhibition class does it belong?
high group

Origin of values: PubChem BioAssay
